Origin of values: a melting point compilation (Tetko et al.; mined from patent text by program, amines drawn as free bases though some values may be those of a salt)

compound | melting point
CC(C)Cc1ccc(C(C)C(=O)NO)cc1 (stereo not drawn) | 119 to 121 °C
CS(=O)(=O)c1ccc(-c2cnn(-c3ccc(F)cc3)c(=O)c2N2CCCC2)cc1 | 192 to 195 °C
CCN(CC)CCN=C1CC(c2ccc(Cl)c(Cl)c2)Cc2c1c(=O)c1cc(Cl)ccc1n2O (stereo not drawn) | 212 to 213 °C
O=Cc1ccc(-c2cnc3cnc(-c4ccc(O)cc4)nc3c2)cc1 | > 268 °C
CN(Cc1cc2c3c(c1)c(=O)c(C(=O)NCc1ccc(F)cc1)cn3CC(=O)N2C)C[C@@H](O)c1ccsc1 | 150 to 152 °C
CCOc1cc2cc(CO)c(CO)c(-c3ccnc(-n4ccc5ccccc5c4=O)c3)c2cc1OCC | 131 to 134 °C
CC(=O)c1nc(-c2ccc(Cl)nc2)[nH]c1C | 239 to 240 °C
CCN(CC)CCOc1ccc(Nc2ncc3c(n2)N(Cc2ccccc2)C(=O)N(c2c(Cl)cccc2Cl)C3)cc1 | 106 °C
O=C1c2cc(Cl)ccc2OCC1n1ccnc1 (stereo not drawn) | 123 to 125 °C
O=C1c2ccc(Cl)cc2C(=O)N1c1ccc(Cl)cc1OC(F)(F)F | 156 to 157 °C
CN1C(C(=O)NC2N=C3CCSC=C3S2)=C(O)c2ccc3ccccc3c2S1(=O)=O (stereo not drawn) | 255 °C
CCCCN/C(=C1/Sc2ccccc2C1=O)c1ccccc1 | 106 to 107 °C
CC(C)(C)c1cc(Cc2cc(C(C)(C)C)cc(C(C)(C)C)c2O)c(O)c(-n2nc3ccccc3n2)c1 | 208 °C
CC1(OC(=O)c2ccccc2)C(OC(=O)c2ccccc2)OC(COC(=O)c2ccccc2)C1OC(=O)c1ccccc1 (stereo not drawn) | 201 to 209 °C
O=C(CN1CCN(c2ccccc2)CC1)N1CCC(C(=O)N2CCC2)(c2cccc(C(F)(F)F)c2)CC1 | 147 to 149 °C
COc1ccc2c(c1)CCC1C2CCC2(C)C1CCC2N(C)CCC(C)C (stereo not drawn) | 80 to 80.5 °C
CCCc1nccn1Cc1ccc2c(c1)Cc1c(-c3ccsc3)n[nH]c1-2 | 113 to 117 °C
COc1ccc(C=C2SC(N3CCOCC3)=NC2=O)cc1-c1ccc(O)c(C23CC4CC(CC(C4)C2)C3)c1 | 339 to 343 °C

* * *

endpoint: melting point

compound | reported.measurement
Cc1cc(CC(=O)O)[nH]c1C(=O)c1ccccc1 | 167 to 168 °C
CCN(CC)C(=O)/C=C(\C)c1ccc(OC(C)c2ccccc2)c2oc(C(C)=O)cc12 (centres undefined) | 70.8 to 73 °C
CC(C)CC(=O)Oc1ccc2cc(C(=N)N)ccc2c1 | 250 to 252 °C
CC1COCc2nc3c(N)nc4ccc(OCCN5CCOCC5)cc4c3n21 (centres undefined) | 186 to 188 °C
COc1cc(COc2nn(-c3ccccc3)cc2/C=C/c2nnco2)ccc1OCc1nc(-c2ccco2)oc1C | 162 to 163 °C
Nc1cccc(S(=O)(=O)NCC(F)(F)F)c1 | 131 °C
CNc1cc(Oc2ccc3c(C(=O)Nc4ccc(N5CCOCC5)c(C(F)(F)F)c4)cccc3c2)ncn1 | 156 to 157 °C
CC(C)(C)NCC(O)c1cc(Cl)c(N)c([N+](=O)[O-])c1 (centres undefined) | 148 to 149 °C
Cc1ccc(NCC2CCN(C(C)C3CC3)CC2)c(C(=O)Nc2ccc(Cl)cn2)c1 (centres undefined) | 79 to 81 °C
COc1ccc2c(c1)CCC1CCNC(=O)C(CC(=O)O)=C21 (centres undefined) | 232 to 234 °C
CC(NC(=O)NCCCCC1CCSS1)C(=O)O (centres undefined) | 131 to 134 °C
CCC(CC)Oc1cc(C)nc2c1[nH]c(=O)n2-c1c(C)cc(C)cc1C | 184 to 186 °C
O=C1C=CC(O)(c2cc3ccccc3s2)C=C1 | 185 to 188 °C
CCCNC(=O)C(C)=Cc1ccc2c(c1)c(Cc1ccc(C(=O)O)cc1OC)cn2CCC(=O)N(C)C | 90 to 97 °C
CCOc1nn(-c2ccc(C(F)(F)F)cn2)cc1CCCOc1cccc(C(C)(C)C(=O)O)c1 | 131 to 132 °C
CC(C)(C)OC(=O)N[C@@H](Cc1ccccc1)C(=O)NCCCN1CCN(CCCNc2cccc3c2C(=O)c2ccccc2C3=O)CC1 | 168 °C
O=C(Nc1nnn[nH]1)c1csc(-c2ccco2)n1 | 275 to 277 °C
COCc1cnc2c(NC(=O)c3c(Cl)cccc3Cl)cccc2c1N1CCNC1=O | 210 to 212 °C
CC(=O)n1nc(CBr)c(Oc2cc(Cl)cc(Cl)c2)c1C | 111 to 113 °C
CCC(C)(CC)c1nnc(NC(=O)c2ccccc2)s1 | 98 to 100 °C
CCCc1cc2c(cc1O)C(C)(C)CCC2(C)C | 96 to 97 °C
CNC(=O)COC(=O)N1CCN(CCc2cc(-c3ccc(Cl)cc3)no2)CC1 | 130 to 132 °C
CC(=O)c1ccc(NS(C)(=O)=O)c(S(=O)c2ccc(F)cc2F)c1 (centres undefined) | 151 to 152 °C
COc1ccc(Nc2nc(-c3cccc(C(=O)Nc4ccc(C(=O)OCc5ccccc5)cc4)c3)cn3ccnc23)cc1OC | 154 to 160 °C
c1ccc2c(=Nc3ccncc3)cc3oc4cc(N5CCCCC5)ccc4nc-3c2c1 | 267 to 268 °C
CC(=Cc1ccc2ccccc2n1)C(=O)NO | 182 to 183 °C
NC(=O)c1nc(-c2c(Cl)cc(C(F)(F)F)cc2Cl)[nH]c1C(N)=O | 306 to 308 °C
O=C(CC(O)(c1cc(Cl)cc(Cl)c1)C(F)(F)F)c1ccc(Br)c2ccccc12 (centres undefined) | 74.5 to 75 °C
O=C(/C=C/c1cccc(S(=O)(=O)N2CCN(CC(c3ccccc3)c3ccccc3)CC2)c1)NO | 117 °C
Cc1noc(-c2ccc(I)cc2)n1 | 136 to 137 °C
Cc1ccc2cccc(OCc3c(Cl)ccc(S(=O)(=O)N(CCCCCCCC(=O)O)Cc4ccccc4)c3Cl)c2n1 | 100 °C
O=[N+]([O-])c1ccc2sc(NCCCO)nc2c1 | 140 to 144 °C
O=C(Nc1cccnc1)N1CCc2ccccc2CC1 | 144 to 146 °C
CC(=O)Oc1ccc(C(=O)N2CCNC2=O)cc1OC(C)=O | 154 to 156 °C
O=C(Cc1cccs1)NC1CN(C(C(=O)O)c2ccc(OC(=O)c3ccccc3)cc2)C1=O (centres undefined) | 129 to 131 °C
Cc1ccc(-c2nn(-c3ccc(Br)cc3)c(N)c2C(N)=O)cc1 | 222 to 223 °C
COc1ccc(N2CCN(c3c(C)c(C)c4c(c3C)C(c3ccc(C(F)(F)F)cc3)C(C)(C)O4)CC2)cc1 (centres undefined) | 208 to 211 °C
Cc1ccc(Cl)c(Nc2ccccc2-c2nnco2)c1Cl | 180 to 181 °C
CC(=O)Oc1ccc(C=Cc2cc(OC(C)=O)cc(OC(C)=O)c2)cc1 | 112 to 113 °C

* * *

compound | melting point
O=C(CNS(=O)(=O)c1ccc2[nH]c(=O)c(=O)[nH]c2c1)OCc1ccccc1 | 270 to 280 °C
CCn1c(=O)n(CC)c2cc3c(N4CCN(C(=O)Nc5ccc(Oc6ccccc6)cc5)CC4)ncnc3cc21 | 168 to 169 °C
CC(=O)Nc1cc2c(s1)C(c1ccccc1)CN(C)CC2 (stereo not given) | 180 °C
CC(C)OCCCNC(=O)c1n[nH]cc1NC(=O)c1ccccn1 | 152 to 153 °C
O=C(CNc1ccccc1)c1ccccc1 | 97 to 99 °C

* * *

Listed here: items and their measured melting point.
endpoint: melting point

molecule | reported.measurement
N#Cc1cc2c(cc1Br)nc1n2CCC1 | 224 °C
CCOC(=O)CCCCCC=C(NCCC(O)C1CCCCC1)C(=O)OCC (stereo not given) | 97 to 99 °C
CC(COc1ccc(CC2SC(=O)N(C(c3ccccc3)(c3ccccc3)c3ccccc3)C2=O)cc1)NC(=O)OC(C)(C)C (stereo not given) | 153 to 157 °C
O=C(Cn1ncc2cc(/C=C/C(c3cc(Cl)c(F)c(Cl)c3)C(F)(F)F)ccc2c1=O)NCC(F)(F)F (stereo not given) | 172 to 175 °C
O=C1C(Br)=CC(Br)(Br)C=C1Br | 123 to 127 °C

* * *

Listed here: items and their measured melting point.

compound | melting point
COc1ccc(S(=O)(=O)Nc2ccc(CCCC(=O)O)nc2)cc1 | 129 to 130 °C
N#Cc1ccc(-c2cn(-c3ccc(C#N)cc3)c(SCc3ccccn3)n2)cc1 | 164 to 170 °C
CCOCC1(C)CCCSc2cc(/C=C/c3ccc(C(=O)O)cc3)ccc21 (stereo not given) | 186 to 187 °C
CC(=Cc1ccc(N(C)C)cc1Br)[N+](=O)[O-] | 102 to 103 °C
COc1ccc2[nH]c(C)c(/C=C/C(=O)c3cccnc3)c2c1 | 193 to 195 °C
CCOC(=O)c1c(O)c2cccnc2n(CC)c1=O | 120 to 122 °C
CCc1cc2c(s1)N(C(=O)NCCN(C)C)CCN=C2c1ccccc1Cl | 160 to 162 °C
COc1ccc2c(c1)c1c3c(ccc1n2C)C(=O)N(CCN(C)C)C3=O | 137 to 138 °C
CC(CO)NC(=O)CCCCC1CCSS1 (stereo not given) | 52 to 56 °C
CN(C)CC(=O)N1CCN(Cc2ccc3c(c2)Cc2c(-c4ccsc4)n[nH]c2-3)CC1 | 190 to 192 °C
